experiment.description: Cytotoxicity in TZM-bl cells
Type: cell-based
condition.description: human
measure.name: CC50 at 4 days

# query: CC50 at 4 days of entry Cc1cc(/C=C/C#N)cc(C)c1Nc1ccnc(Nc2ccc(C#N)cc2)n1 [RPV, rilpivirine] > 54.5 µM

====

System: HIV-1 GH9 (K101P/K103N/V108I)
experiment.description: Anti-HIV-1 activity against triple-mutant strain GH9 in TZM-bl cells
Assay type: cell-based
condition.description: Human immunodeficiency virus 1, TZM-bl, read-out: EC50 GH9
Recorded measurements of pEC50, one per entry
Here pEC50 is given on a logarithmic scale as minus log10 of the concentration in mol/L.

Cc1cc(C#N)cc(C)c1Oc1nc(Nc2ccc(C#N)cc2)nc(N)c1Br | 6.98

# query: pEC50 of entry `Cc1cc(/C=C/C#N)cc(C)c1Nc1ccnc(Nc2ccc(C#N)cc2)n1` 5.77
